- Tested on: Ca2+ uptake of pig heart mitochondria
- experimental-details: Ca2+ uptake assay using isolated pig heart mitochondria (atomic absorbance spectrometer)
- Assay type: biochemical
- conditions: 100 μM CaCl2; read-out: IC50, inhibition of Ca2+ uptake of pig heart mitochondria
Here, each record is paired with measured IC50 data.
Response body: numeric value in µM, unit text excluded.

In [3]: df
Out[3]:
                                   molecule  recorded_number
0  N.N.N.N.N.N.N.N.N.N.N.N.N.N.[Cl-].[Cl-].[Cl-].[Cl-].[Cl-].[Cl-].[O-2].[O-2].[Ru+3].[Ru+3].[Ru+4] [RuR, Ruthenium Red]             0.03

Data request: Give a short answer stating reported IC50 for Cc1onc(-c2c(Cl)cccc2Cl)c1CNc1cccc(C(=O)c2cn(CCCC(=O)O)c3ccccc23)c1 [DS16570511] .
Data returned: 15
